System: P12-Ichikawa
Assay: cell viability relative to DMSO control; higher = less cytotoxic
Conditions: RPMI 5 mM glucose + 10% FBS; 48 h; 0.569 µM
Measurement label: cell viability
Quick note: number first, unit second.

Cc1cn(-c2cc(NC(=O)c3ccc(C)c(Nc4nccc(-c5cccnc5)n4)c3)cc(C(F)(F)F)c2)cn1
110%

For each entry beneath this line, provide reported cell viability.
1. OC1=CC2=C(C(=C1)O)C(=O)\C=C(/O2)C3=CC=CC=C3
2. CC[C@H](C)[N]1C=C(C)C2=C1C=C(C=C2C(=O)NC\C3=C(C)\C=C(\C)NC3=O)C4=CC=C(N=C4)N5CCNCC5

1. 101%
2. 126%

###

Tested on: P12-Ichikawa
Experiment: cell viability relative to DMSO control; higher = less cytotoxic
Settings: RPMI 5 mM glucose + 10% dialyzed FBS; 48 h; 1.71 µM
For each of the molecules below, state its cell viability.
Give bare numbers, in %.

Observe how each entry below is paired with its result.
CN1CCCN=C1/C=C/c1cccs1.O=C(O)c1cc2ccccc2c(Cc2c(O)c(C(=O)O)cc3ccccc23)c1O
112
C=C(C)[C@H]1Cc2c(ccc3c2O[C@@H]2COc4cc(OC)c(OC)cc4[C@@H]2C3=O)O1
69.3
C#C[C@]1(O)CC[C@H]2[C@@H]3CCc4cc(O)ccc4[C@H]3CC[C@@]21C
85.6
COC(=O)[C@@H]1[C@H]2C[C@H]3c4[nH]c5ccccc5c4CCN3C[C@@H]2CC[C@@H]1O
128

The measured cell viability associated with OC1CCC(Nc2ncc3nc(Nc4c(F)cc(F)cc4F)n([C@@H]4CCOC4)c3n2)CC1 (stereo not given in full) reads 119

###

Give measured cell viability for each item. Keep answers brief.
Tested on: SEM cells
Test: cell viability relative to DMSO control; higher = less cytotoxic
Conditions: RPMI 5 mM glucose + 10% dialyzed FBS; 48 h; 0.000781 µM
// return the numeric value with its unit appended

// worked examples, cell viability included
COC1=CC=C(C=C1)C/2=C/OC3=C(C(=CC(=C3)O)O)C2=O
98.7%
C[S+]([O-])(=O)C1=CC=C(C=C1)C/2=C(/C(=O)OC2)C3=CC=CC=C3
89.4%
CCN1\C=C(\C(O)=O)C(=O)C2=CC=C(C)N=C12
86.9%
C[C@]12CC[C@@H]3c4ccc(O)cc4C[C@@H](CCCCCCCCC[S+]([O-])CCCC(F)(F)C(F)(F)F)[C@H]3[C@@H]1CC[C@@H]2O (stereo not given in full)
120%
COC1=C2OC(=O)\C=C/C2=CC3=C1OC=C3
123%

Look up cell viability for the entries below, preserving their order.
1. S=P(N1CC1)(N1CC1)N1CC1
2. COc1ccc(C2CNC(=O)C2)cc1OC1CCCC1 (stereo not given)
3. Cc1cnc(-c2cc(N3CCN(C(=O)CC[S+](C)(=O)[O-])CC3)ncc2Cl)c(C)c1
4. N[C@H](CSC(c1ccccc1)(c1ccccc1)c1ccccc1)C(=O)O
5. O=C(Nc1ccccc1-c1cn2c(CN3CCNCC3)csc2n1)c1cnc2ccccc2n1

1: 99.6%; 2: 85.9%; 3: 112%; 4: 100%; 5: 56.4%

###

Please respond with reported cell viability for every item in the list.
Test system: P12-Ichikawa
Test: cell viability relative to DMSO control; higher = less cytotoxic
Details: RPMI 5 mM glucose + 10% FBS; 48 h; 0.0211 µM
Answers are plain numbers, in %.

S=P(N1CC1)(N1CC1)N1CC1
102
Cc1cc(C(C)(C)C)c(O)c(C)c1CC1=NCCN1
106
NC/1=N/C2=C([NH]C=N2)C(=S)N1
116
OC1=CC2=C(C(=C1)O)C(=O)\C=C(/O2)C3=CC=CC=C3
111
C[C@]1(c2nc3c(C(N)=O)cccc3[nH]2)CCCN1
82.6

// below: cell viability requested for another compound
// sample "Cc1cc2c(F)c(Oc3ncnn4cc(OC[C@@H](C)O)c(C)c34)ccc2[nH]1" , its cell viability was 98.1
